molecular target: Sialic acid-binding Ig-like lectin 7 (Homo sapiens, UniProt Q9Y286); assay: Binding affinity to recombinant human Fc-fused siglec-7 by fluorescence based glycan microarray analysis
Sequence (Q9Y286 whole entry, the tested form may be a part): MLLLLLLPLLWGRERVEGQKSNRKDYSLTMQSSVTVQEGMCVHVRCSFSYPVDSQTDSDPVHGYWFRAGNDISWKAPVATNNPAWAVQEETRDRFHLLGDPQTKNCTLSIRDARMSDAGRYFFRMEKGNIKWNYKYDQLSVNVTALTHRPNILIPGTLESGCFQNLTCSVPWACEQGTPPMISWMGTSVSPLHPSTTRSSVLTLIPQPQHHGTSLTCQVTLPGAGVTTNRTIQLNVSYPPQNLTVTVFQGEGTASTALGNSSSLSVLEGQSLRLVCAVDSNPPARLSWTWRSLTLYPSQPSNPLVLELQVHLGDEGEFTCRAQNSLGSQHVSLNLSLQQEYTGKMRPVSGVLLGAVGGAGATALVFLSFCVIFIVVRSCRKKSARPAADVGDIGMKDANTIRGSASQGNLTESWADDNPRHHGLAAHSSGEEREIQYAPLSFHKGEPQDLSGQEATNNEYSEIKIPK
Calls of active or inactive are those of the source. The rule behind the calls is not given here.
Result Type: Activity

CC(=O)N[C@H]1[C@H](OCCCCCCN=[N+]=[N-])O[C@H](CO)[C@@H](O[C@@H]2O[C@H](CO)[C@H](O)[C@H](O[C@@H]3O[C@H](CO)[C@@H](O[C@@H]4O[C@H](CO)[C@H](O)[C@H](O[C@]5(C(=O)O)C[C@H](O)[C@@H](NC(C)=O)[C@H]([C@@H](O)[C@@H](CO)O[C@]6(C(=O)O)C[C@H](O)[C@@H](NC(C)=O)[C@H]([C@H](O)[C@H](O)CO)O6)O5)[C@H]4O)[C@H](O)[C@H]3NC(C)=O)[C@H]2O)[C@@H]1O :: inactive
CC(=O)N[C@H]1[C@H](OCCCCCCN=[N+]=[N-])O[C@H](CO)[C@@H](O[C@@H]2O[C@H](CO)[C@H](O)[C@H](O[C@]3(C(=O)O)C[C@H](O)[C@@H](NC(C)=O)[C@H]([C@H](O)[C@H](O)CO)O3)[C@H]2O)[C@@H]1O :: inactive
CC(=O)N[C@H]1[C@H](OCCCCCCN=[N+]=[N-])O[C@H](CO)[C@@H](O[C@@H]2O[C@H](CO)[C@H](O)[C@H](O[C@@H]3O[C@H](CO)[C@@H](O)[C@@H](O[C@@H]4O[C@H](CO[C@]5(C(=O)O)C[C@H](O)[C@@H](NC(C)=O)[C@H]([C@H](O)[C@H](O)CO)O5)[C@H](O)[C@H](O)[C@H]4O)[C@H]3NC(C)=O)[C@H]2O)[C@@H]1O :: inactive
CC(=O)N[C@H]1[C@H]([C@H](O)[C@H](O)CO)O[C@@](OC[C@H]2O[C@@H](O[C@H]3[C@H](O)[C@@H](O)[C@H](OCCCCCCN=[N+]=[N-])O[C@@H]3CO)[C@H](O)[C@@H](O[C@]3(C(=O)O)C[C@H](O)[C@@H](NC(C)=O)[C@H]([C@H](O)[C@H](O)CO)O3)[C@H]2O)(C(=O)O)C[C@@H]1O :: Active
CC(=O)N[C@H]1[C@H](OCCCCCCN=[N+]=[N-])O[C@H](CO)[C@@H](O[C@@H]2O[C@H](CO[C@]3(C(=O)O)C[C@H](O)[C@@H](NC(C)=O)[C@H]([C@H](O)[C@H](O)CO)O3)[C@H](O)[C@H](O[C@]3(C(=O)O)C[C@H](O)[C@@H](NC(C)=O)[C@H]([C@H](O)[C@H](O)CO)O3)[C@H]2O)[C@@H]1O :: Active
CC(=O)N[C@H]1[C@H]([C@H](O)[C@H](O)CO)O[C@@](OC[C@H]2O[C@@H](O[C@H]3[C@H](O)[C@@H](O)[C@H](OCCCCCCN=[N+]=[N-])O[C@@H]3CO)[C@H](O)[C@@H](O)[C@H]2O)(C(=O)O)C[C@@H]1O :: Active

Let's switch to this molecule now.
Problem: What does the record list as Activity for CC(=O)N[C@H]1[C@H]([C@H](O)[C@H](O)CO)O[C@@](O[C@H]2[C@@H](O)[C@@H](CO)O[C@@H](O[C@H]3[C@H](O)[C@@H](O)[C@H](OCCCCCCN=[N+]=[N-])O[C@@H]3CO)[C@@H]2O)(C(=O)O)C[C@@H]1O ?
Solution: inactive

###

Target: Sialic acid-binding Ig-like lectin 14 (Homo sapiens)
Sequence (whole entry): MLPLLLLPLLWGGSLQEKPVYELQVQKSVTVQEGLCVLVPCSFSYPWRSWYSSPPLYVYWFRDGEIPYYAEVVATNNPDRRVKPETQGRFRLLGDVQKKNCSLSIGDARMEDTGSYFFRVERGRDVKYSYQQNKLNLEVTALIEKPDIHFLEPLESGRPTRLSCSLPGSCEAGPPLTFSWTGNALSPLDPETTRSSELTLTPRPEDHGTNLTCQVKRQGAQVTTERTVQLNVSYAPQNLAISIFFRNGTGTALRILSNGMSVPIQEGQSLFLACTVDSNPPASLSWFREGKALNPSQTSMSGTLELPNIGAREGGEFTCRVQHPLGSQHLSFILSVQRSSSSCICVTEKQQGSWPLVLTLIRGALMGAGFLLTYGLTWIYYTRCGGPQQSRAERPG
Assay: Binding affinity to recombinant human Fc-fused siglec-14 by fluorescence based glycan microarray analysis
The source made the active and inactive calls. No cut-off for these calls is given here.
Result Type: Activity

CC(=O)N[C@H]1[C@H]([C@@H](O)[C@@H](CO)O[C@]2(C(=O)O)C[C@H](O)[C@@H](NC(C)=O)[C@H]([C@H](O)[C@H](O)CO)O2)O[C@@](O[C@H]2[C@@H](O)[C@@H](CO)O[C@@H](O[C@H]3[C@H](O)[C@@H](O)[C@H](OCCCCCCN=[N+]=[N-])O[C@@H]3CO)[C@@H]2O)(C(=O)O)C[C@@H]1O :: Active
CC(=O)N[C@H]1[C@H]([C@H](O)[C@H](O)CO)O[C@@](OC[C@H]2O[C@@H](O[C@H]3[C@H](O)[C@@H](O)[C@H](OCCCCCCN=[N+]=[N-])O[C@@H]3CO)[C@H](O)[C@@H](O[C@]3(C(=O)O)C[C@H](O)[C@@H](NC(C)=O)[C@H]([C@H](O)[C@H](O)CO)O3)[C@H]2O)(C(=O)O)C[C@@H]1O :: Active
CC(=O)N[C@H]1[C@H](OCCCCCCN=[N+]=[N-])O[C@H](CO)[C@@H](O[C@@H]2O[C@H](CO[C@]3(C(=O)O)C[C@H](O)[C@@H](NC(C)=O)[C@H]([C@H](O)[C@H](O)CO)O3)[C@H](O)[C@H](O[C@]3(C(=O)O)C[C@H](O)[C@@H](NC(C)=O)[C@H]([C@H](O)[C@H](O)CO)O3)[C@H]2O)[C@@H]1O :: Active

###

target: Sialic acid-binding Ig-like lectin 7 (Homo sapiens, UniProt Q9Y286); assay: Binding affinity to recombinant human Fc-fused siglec-7 after 1 hr by fluorescence based glycan microarray analysis
Kindly state Kd for each of the entries shown.
All answers are understood in nM, so give the number only.

Problem: Item under review: CC(=O)N[C@H]1[C@H]([C@H](O)[C@H](O)CO)O[C@@](OC[C@H]2O[C@@H](O[C@H]3[C@H](O)[C@@H](O)[C@H](OCCCCCCN=[N+]=[N-])O[C@@H]3CO)[C@H](O)[C@@H](O[C@]3(C(=O)O)C[C@H](O)[C@@H](NC(C)=O)[C@H]([C@H](O)[C@H](O)CO)O3)[C@H]2O)(C(=O)O)C[C@@H]1O . Reported Kd?
Solution: 26.8

Problem: Which value of Kd has been reported for CC(=O)N[C@H]1[C@H]([C@@H](O)[C@@H](CO)O[C@]2(C(=O)O)C[C@H](O)[C@@H](NC(C)=O)[C@H]([C@@H](O)[C@@H](CO)O[C@]3(C(=O)O)C[C@H](O)[C@@H](NC(C)=O)[C@H]([C@H](O)[C@H](O)CO)O3)O2)O[C@@](O[C@H]2[C@@H](O)[C@@H](CO)O[C@@H](O[C@H]3[C@H](O)[C@@H](O)[C@H](OCCCCCCN=[N+]=[N-])O[C@@H]3CO)[C@@H]2O)(C(=O)O)C[C@@H]1O in the records?
Solution: 48.7

Problem: Using the record for CC(=O)N[C@H]1[C@H]([C@@H](O)[C@@H](CO)O[C@]2(C(=O)O)C[C@H](O)[C@@H](NC(C)=O)[C@H]([C@H](O)[C@H](O)CO)O2)O[C@@](O[C@H]2[C@@H](O)[C@@H](CO)O[C@@H](O[C@H]3[C@H](O)[C@@H](O)[C@H](OCCCCCCN=[N+]=[N-])O[C@@H]3CO)[C@@H]2O)(C(=O)O)C[C@@H]1O , report its Kd.
Solution: 32.7

Problem: Look at this compound and give its reported Kd. CC(=O)N[C@H]1[C@H](OCCCCCCN=[N+]=[N-])O[C@H](CO)[C@@H](O[C@@H]2O[C@H](CO[C@]3(C(=O)O)C[C@H](O)[C@@H](NC(C)=O)[C@H]([C@H](O)[C@H](O)CO)O3)[C@H](O)[C@H](O[C@]3(C(=O)O)C[C@H](O)[C@@H](NC(C)=O)[C@H]([C@H](O)[C@H](O)CO)O3)[C@H]2O)[C@@H]1O
Solution: 38.7

###

target: Sialic acid-binding Ig-like lectin 7 (Homo sapiens, UniProt Q9Y286); assay: Binding affinity to recombinant human Fc-fused siglec-7 after 1 hr by fluorescence based glycan microarray analysis
Result Type: Kd

Problem: Query: Kd; subject: CC(=O)N[C@H]1[C@H](OCCCCCCN=[N+]=[N-])O[C@H](CO)[C@@H](O[C@@H]2O[C@H](CO)[C@H](O)[C@H](O[C@]3(C(=O)O)C[C@H](O)[C@@H](NC(C)=O)[C@H]([C@@H](O)[C@@H](CO)O[C@]4(C(=O)O)C[C@H](O)[C@@H](NC(C)=O)[C@H]([C@@H](O)[C@@H](CO)O[C@]5(C(=O)O)C[C@H](O)[C@@H](NC(C)=O)[C@H]([C@H](O)[C@H](O)CO)O5)O4)O3)[C@H]2O)[C@@H]1O
Solution: 54.1 nM

Problem: Dear colleague, I am looking for the recorded Kd of the following molecule: CC(=O)N[C@H]1[C@H](OCCCCCCN=[N+]=[N-])O[C@H](CO)[C@@H](O[C@@H]2O[C@H](CO)[C@H](O)[C@H](O[C@]3(C(=O)O)C[C@H](O)[C@@H](NC(C)=O)[C@H]([C@@H](O)[C@@H](CO)O[C@]4(C(=O)O)C[C@H](O)[C@@H](NC(C)=O)[C@H]([C@H](O)[C@H](O)CO)O4)O3)[C@H]2O)[C@@H]1O
Solution: 43.3 nM
